Values compiled from patent US20190134000A1.

- test: S9 stability, human
- Format: in vitro ADME

| molecule | half-life |
| --- | --- |
| CN1[C@@H]2CC[C@H]1C[C@@H](OC(=O)c1c[nH]c3cc(F)ccc13)C2 [Compound C41] | > 1 h |

###

- test: in vivo
- condition-description: rat, po, Tmax oral

| compound | value-units | Tmax |
| --- | --- | --- |
| CN1[C@@H]2CC[C@H]1C[C@@H](OC(=O)c1c[nH]c3cc(F)ccc13)C2 [Compound C41] | h | 8 |

###

- experimental-system: UniProt P10635
- Sequence (P10635 whole entry): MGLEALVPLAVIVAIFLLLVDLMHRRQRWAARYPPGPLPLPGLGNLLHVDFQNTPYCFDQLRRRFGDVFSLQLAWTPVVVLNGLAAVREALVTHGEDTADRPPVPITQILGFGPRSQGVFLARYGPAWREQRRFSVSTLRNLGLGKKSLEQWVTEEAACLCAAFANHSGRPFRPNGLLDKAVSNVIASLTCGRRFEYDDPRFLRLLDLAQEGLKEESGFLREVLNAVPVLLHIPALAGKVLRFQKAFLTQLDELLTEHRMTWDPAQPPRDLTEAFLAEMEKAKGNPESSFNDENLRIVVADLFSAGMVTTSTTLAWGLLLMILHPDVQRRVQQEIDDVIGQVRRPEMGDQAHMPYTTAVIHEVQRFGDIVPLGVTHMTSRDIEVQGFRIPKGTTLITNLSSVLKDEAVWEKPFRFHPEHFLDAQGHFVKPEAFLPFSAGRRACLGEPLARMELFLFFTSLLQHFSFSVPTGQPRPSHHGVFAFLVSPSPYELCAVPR
- test: CYP inhibition screen CYP2D6
- Type: in vitro ADME
- condition-description: human; 30 μM; read-out: CYP2D6 inhibition
recorded-endpoint: inhibition at 30 µM (%)

| compound | recorded-endpoint | value-units | recorded-number |
| --- | --- | --- | --- |
| CN1[C@@H]2CC[C@H]1C[C@@H](OC(=O)c1c[nH]c3ccccc13)C2 [Compound F03, tropisetron, reference compound] | inhibition at 30 µM | % | 38 |

###

We begin with a simple list: items and their reported recovery.
- test: in vitro
- condition-description: human

| molecule | recovery, % |
| --- | --- |
| CN1[C@@H]2CC[C@H]1C[C@@H](OC(=O)c1c[nH]c3cc(F)ccc13)C2 | 115 |
| CC(=O)CC(c1ccccc1)c1c(O)c2ccccc2oc1=O (centres unmarked) | 99.7 |

###

- experimental-system: CYP1A2 (Homo sapiens)
- test: CYP inhibition screen CYP1A2
- Assay type: in vitro ADME
- condition-description: human; 30 μM; read-out: CYP1A2 inhibition

| molecule | inhibition at 30 µM, % |
| --- | --- |
| CN1[C@@H]2CC[C@H]1C[C@@H](OC(=O)c1c[nH]c3ccccc13)C2 [Compound F03, tropisetron, reference compound] | 1 |

###

- experimental-system: CYP3A4 (Homo sapiens)
- Sequence (P08684 whole entry): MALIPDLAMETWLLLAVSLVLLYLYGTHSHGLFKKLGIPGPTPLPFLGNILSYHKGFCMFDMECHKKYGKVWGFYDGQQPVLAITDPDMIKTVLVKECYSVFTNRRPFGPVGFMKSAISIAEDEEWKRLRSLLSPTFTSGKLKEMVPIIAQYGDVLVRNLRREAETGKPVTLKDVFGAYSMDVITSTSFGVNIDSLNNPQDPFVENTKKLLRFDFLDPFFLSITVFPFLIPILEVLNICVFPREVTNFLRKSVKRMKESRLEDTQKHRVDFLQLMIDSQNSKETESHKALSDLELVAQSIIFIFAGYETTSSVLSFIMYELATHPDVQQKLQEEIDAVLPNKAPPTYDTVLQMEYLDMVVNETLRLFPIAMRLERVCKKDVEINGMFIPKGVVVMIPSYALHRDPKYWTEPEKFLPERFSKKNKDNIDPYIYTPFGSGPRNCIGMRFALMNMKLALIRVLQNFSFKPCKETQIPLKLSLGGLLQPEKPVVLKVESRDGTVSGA
- test: CYP inhibition screen CYP3A4
- Type: in vitro ADME
- condition-description: human, 30 μM, midazolam; read-out: CYP3A4 midazolam inhibition

| molecule | inhibition at 30 µM, % |
| --- | --- |
| CN1[C@@H]2CC[C@H]1C[C@@H](OC(=O)c1c[nH]c3ccccc13)C2 [Compound F03, tropisetron, reference compound] | 6.6 |

###

- test: in vivo
- condition-description: rat, iv, Cmax

| given-smiles | value-units | Cmax |
| --- | --- | --- |
| CN1[C@@H]2CC[C@H]1C[C@@H](OC(=O)c1c[nH]c3cc(F)ccc13)C2 | ng/g | 629 |

###

- experimental-system: CYP2C19 (Homo sapiens)
- Sequence (P33261 whole entry): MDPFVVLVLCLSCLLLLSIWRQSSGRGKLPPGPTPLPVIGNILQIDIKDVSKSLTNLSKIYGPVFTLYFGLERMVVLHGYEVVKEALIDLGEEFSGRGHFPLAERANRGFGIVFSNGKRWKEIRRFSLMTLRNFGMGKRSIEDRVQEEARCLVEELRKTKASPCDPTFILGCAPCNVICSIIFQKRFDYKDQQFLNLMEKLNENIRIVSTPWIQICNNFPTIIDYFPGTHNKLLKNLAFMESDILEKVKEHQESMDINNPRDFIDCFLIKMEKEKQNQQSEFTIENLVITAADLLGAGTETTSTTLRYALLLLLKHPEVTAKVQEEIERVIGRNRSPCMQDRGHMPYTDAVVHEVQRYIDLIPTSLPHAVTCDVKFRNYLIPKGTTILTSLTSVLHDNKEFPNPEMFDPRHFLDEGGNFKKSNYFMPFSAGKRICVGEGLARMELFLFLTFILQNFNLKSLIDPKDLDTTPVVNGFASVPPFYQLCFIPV
- test: CYP inhibition screen CYP2C19
- Assay type: in vitro ADME
- condition-description: human

| compound | experimental-system | inhibition at 10 µM, % |
| --- | --- | --- |
| CN1[C@@H]2CC[C@H]1C[C@@H](OC(=O)c1c[nH]c3cc(F)ccc13)C2 [Compound C41] | CYP2C19 (Homo sapiens) | 0 |

###

- experimental-system: CYP1A2 (Homo sapiens, UniProt P05177)
- Sequence (P05177 whole entry): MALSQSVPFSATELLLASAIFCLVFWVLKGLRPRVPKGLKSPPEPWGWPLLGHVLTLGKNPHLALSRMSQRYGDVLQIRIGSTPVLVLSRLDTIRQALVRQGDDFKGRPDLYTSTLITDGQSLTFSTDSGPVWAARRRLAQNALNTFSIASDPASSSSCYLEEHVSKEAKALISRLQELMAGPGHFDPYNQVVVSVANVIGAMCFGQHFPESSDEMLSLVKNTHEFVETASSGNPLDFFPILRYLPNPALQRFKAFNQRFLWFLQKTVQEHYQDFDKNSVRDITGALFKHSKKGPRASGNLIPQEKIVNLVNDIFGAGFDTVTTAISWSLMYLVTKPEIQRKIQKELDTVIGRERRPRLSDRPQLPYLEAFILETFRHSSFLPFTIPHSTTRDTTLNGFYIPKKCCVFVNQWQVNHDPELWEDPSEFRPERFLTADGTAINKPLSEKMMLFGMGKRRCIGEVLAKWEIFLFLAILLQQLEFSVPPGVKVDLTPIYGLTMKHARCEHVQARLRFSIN
- test: CYP inhibition screen CYP1A2
- Assay type: in vitro ADME
pIC50: −log10 of the molar value.

| given-smiles | experimental-system | pIC50 |
| --- | --- | --- |
| CN1[C@@H]2CC[C@H]1C[C@@H](OC(=O)c1c[nH]c3cc(F)ccc13)C2 | CYP1A2 (Homo sapiens, UniProt P05177) | < 4.52 |
